The measurements presented in this section are drawn from patent EP4818177A1.

# testMethodNotes: Pharmacokinetics in rats (plasma) after oral administration
# reportedConditions: rat, 5 mg/kg
Documented MRT inf across a set of molecules

> print(dat)
                                   molecule  measvalue
1  [2H]C([2H])([2H])NN(C(=O)c1cc2c3c(c(N)nc2cn1)[C@@H](C)OC3)[C@@H]1COCc2c1ccn1c(C(F)(F)F)cnc21 [Example 362-P1]      2.8 h

[ask] Report MRT inf, nothing else, for this molecule: CNN(C(=O)c1cc2c3c(c(N)nc2cn1)COC3)[C@@H]1COCc2nc(S(F)(F)(F)(F)F)ccc21 [Example 374]
[reply] 1.9 h
